Just for reference, ChEMBL document CHEMBL3393037 is where these values come from.

Recorded MIC for the following compounds
- Test system: Cryptococcus neoformans
- protocol.notes: Antifungal activity against Cryptococcus neoformans MATalpha serotype A strain H99 assessed as inhibition of visible growth after 5 days
- Format: functional
- assay.setup: MATalpha serotype A strain H99, 120 h

O=C(CCC1CCCCC1)Nc1ncc(Cc2ccccc2)s1
> 20 µM
O=C(Nc1ncc(Cc2cccc3ccccc23)s1)C1CCCCC1
0.6 µM
O=C(CC1CCCCC1)Nc1ncc(Cc2ccccc2)s1
> 20 µM
O=C(CC1CCCCC1)Nc1ncc(Cc2cccc3ccccc23)s1
> 20 µM
O=C(CCC1CCCCC1)Nc1ncc(Cc2ccccc2Cl)s1
> 20 µM

IN: Please give the measured MIC for this compound: CC(C)C(=O)Nc1ncc(Cc2cccc3ccccc23)s1
OUT: > 20 µM

IN: Param item: O=C(Nc1ncc(Cc2ccccc2)s1)C1CCCC1
OUT: 10 µM

IN: Param item: O=C(Nc1ncc(Cc2cccc3ccccc23)s1)C1CCCC1
OUT: 1.3 µM

IN: Param item: O=C(Nc1ncc(Cc2ccccc2)s1)C1CCCCC1
OUT: 5 µM

IN: Param item: O=C(CCC1CCCCC1)Nc1ncc(Cc2cccc(F)c2)s1
OUT: > 20 µM

IN: Param item: O=C(Nc1nc(C23CC4CC(CC(C4)C2)C3)cs1)c1ccccc1
OUT: 20 µM
